# TARGET DESC: HLA-A*0201 (human)
# PROTOCOL DETAILS: competition with 125I-labelled probe peptide for purified HLA, gel filtration
# CONDITION SET: remark: other sources report otherwise
ENDPOINT: pIC50
Schema: pIC50 number; meaning minus log10 of the concentration expressed in molar units.

I have this binder here, VLLGVVFGV [Her2/neu.665L2V9] , and I need its recorded pIC50.
8.62
